Values were extracted from PubChem BioAssay (NCI).

growth inhibition for assorted compounds
# measurement.notes: NCI Yeast Anticancer Drug Screen. Data for the bub3 strain (AID 167)
# test.parameters: S. cerevisiae bub3 mutant strain, at 50.0 µM, stronger effect = higher value
Compounds without any hit were thinned out: in the full panel of roughly 79,000, 15% have a hit. The source made the active and inactive calls. Rule as the data show it: active = growth inhibition above about 70%; inactive = the rest.

[[record]]
compound = "CC12CCC(O)CC1=CCC1C2CCC2(C)C(C(=O)O)=CCC12 (stereo not given)"
test_readout = "growth inhibition"
result = "49.1% (inactive)"

[[record]]
compound = "CCN(CC)CCOc1ccc(C)c2c1C(=O)CC2"
test_readout = "growth inhibition"
result = "21.4% (inactive)"

[[record]]
compound = "Cc1cccc2c1Oc1ccccc1C2NC(=O)OCCCl (stereo not given)"
test_readout = "growth inhibition"
result = "0.85% (inactive)"

[[record]]
compound = "Cc1ccc(NC(=O)Oc2ccc(F)cc2)cc1NC(=O)Oc1ccc(F)cc1"
test_readout = "growth inhibition"
result = "-4.95% (inactive)"


Turning now to a further compound:
Data request: Return reported growth inhibition. Input compound: Cc1ccc(NC(=O)/C(Cc2nc3ccc([N+](=O)[O-])cc3[nH]c2=O)=N\NC(=O)C[n+]2ccccc2)c(C)c1
Data returned: 15.3% (inactive)

* * *

growth inhibition for assorted molecules
# measurement.notes: NCI Yeast Anticancer Drug Screen. Data for the mlh1 rad18 strain (AID 175)
# test.parameters: S. cerevisiae mlh1 rad18 strain growth inhibition; at 50.0 µM; stronger effect = higher value
About 79,000 compounds went through this panel and 15% of them were active in at least one assay; those are over-represented in the sample as a whole.
Provide the reading as a plain figure in %.

[[record]]
molecule = "CCCCCCCCCCCCOc1cccc(OCCCCCCCCCCCC)c1"
quantity_unit = "%"
numeric_result = -19.1

[[record]]
molecule = "O=S(=O)(O)c1cc(O)c2ccc3c(S(=O)(=O)O)cc(S(=O)(=O)O)c4ccc1c2c34"
quantity_unit = "%"
numeric_result = 3.75

[[record]]
molecule = "O=C1S/C(=C2\\C(=O)N(CN3CCCCC3)c3ccc(Br)cc32)C(=O)N1CN1CCCCC1"
quantity_unit = "%"
numeric_result = 22.2

[[record]]
molecule = "CCC(C)C(CO)N=Cc1ccccc1O.O.[Cu] (stereo not drawn)"
quantity_unit = "%"
numeric_result = 83.3

[[record]]
molecule = "COC(=O)C(CS)NC(=O)CNC(=O)CNC(=O)C(CCCCNC(=O)OCc1ccccc1)NC(=O)CNC(=O)C(CSC(c1ccccc1)(c1ccccc1)c1ccccc1)NC(=O)OCc1ccccc1 (stereo not drawn)"
quantity_unit = "%"
numeric_result = 0.2


Data request: Return reported growth inhibition. Input molecule: FC(F)C(F)(F)N1c2ccccc2Sc2ccccc21
Data returned: 60.1

Data request: Return reported growth inhibition. Input molecule: C[n+]1cccc2c(=O)c3ccccc3oc21
Data returned: -20.2

Data request: Return reported growth inhibition. Input molecule: CC(=O)Nc1ccc(/C=N/NC(=O)c2ccc(O)cc2)cc1
Data returned: 0.9

* * *

# measurement.notes: NCI Yeast Anticancer Drug Screen. Data for the cln2 rad14 strain (AID 165);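 also: 0% = growth equal to vehicle treated cultures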
# test.parameters: S. cerevisiae cln2 rad14 strain, at 50.0 µM, stronger effect = higher value
# Description: Growth inhibition of yeast strains with defined genetic alterations is measured as a screen for potential anti-cancer activity. Selected strains with alterations in DNA damage repair or cell cycle control were exposed to compounds and growth inhibition was measured relative to vehicle treated controls. The strain used in this assay is cln2 rad14
The panel holds about 79,000 compounds, 15% with a hit somewhere; the sample as a whole holds those more often.
test.readout: growth inhibition (%)
Provide the reading as a plain figure in %.

Consider the worked cases shown below.
[[record]]
molecule = "CCc1ccc2c(c1)CCC(=O)O2"
test_readout = "growth inhibition"
numeric_result = -23.7

[[record]]
molecule = "N#CC(NNC(=O)c1ccccc1O)c1ccccc1 (centres undefined)"
test_readout = "growth inhibition"
numeric_result = -8.7

[[record]]
molecule = "N#Cc1ccccc1OCCCCOc1ccccc1C#N"
test_readout = "growth inhibition"
numeric_result = 14.2

[[record]]
molecule = "COc1cc(/C=C/C(=O)c2sc(NNC(C)=O)nc2C)ccc1O"
test_readout = "growth inhibition"
numeric_result = 23.1

[[record]]
molecule = "NC(=O)c1ccc(NC=O)cc1"
test_readout = "growth inhibition"
numeric_result = 25.1


Data request: Return reported growth inhibition. Input molecule: NS(=O)(=O)c1ccc(N2C(=O)C(=O)N(c3ccccc3)C2=S)cc1
Data returned: -39.4
